endpoint.label: melting point

Worked cases, answers included:
Cc1nc(-c2ccc(Br)cc2)ccc1C(=O)NN=Cc1ccccc1 [Compound 7a] :: 270 to 272 °C
Cc1nc(-c2ccc(Br)cc2)ccc1C(=O)NN=Cc1ccc(Cl)cc1Cl [Compound 7d] :: 269 to 271 °C

Q: Reported melting point, compound COc1ccc(C=NNC(=O)c2ccc(-c3ccc(Br)cc3)nc2C)cc1 [Compound 7e] : ____
Result: 251 to 253 °C

====

Listed molecules paired with reported melting point

Cc1nc(-c2ccc(Br)cc2)ccc1C(=O)NN=Cc1ccc2ccccc2c1 [Compound 7f] :: 273 to 275 °C
COc1ccc(-c2ccc(C(=O)NN)c(C)n2)cc1OC [Compound 4g] :: 204 to 205 °C
Cc1nc(-c2ccc(Br)cc2)ccc1C(=O)NN=Cc1ccc(F)cc1 [Compound 7b] :: 252 to 254 °C
Cc1nc(-c2ccc(Br)cc2)ccc1C(=O)NN=Cc1ccc(Cl)cc1 [Compound 7c] :: 265 to 267 °C

// switching to the query molecule
Q: # input molecule: Cc1nc(-c2ccc(Br)cc2)ccc1C(=O)NN [Compound 4e] ; wanted: its melting point
Result: 213 to 215 °C

====

tested on: M. tuberculosis (RCMB 010126); assay: microplate Alamar blue assay (MABA), in vitro antimycobacterial activity; assay type: cell-based, Mycobacterium tuberculosis; conditions: Mycobacterium tuberculosis, RCMB010126, M. tuberculosis RCMB 010126, MABA, visual MIC; read-out: MIC
endpoint.label: MIC (µg/mL)
Only the number, expressed in µg/mL, is required.

Before answering, review these 3 worked examples.
Cc1nc(-c2cccs2)ccc1C(=O)NN :: 50
COc1cc(-c2ccc(C(=O)NN)c(C)n2)cc(OC)c1OC :: 50
Cc1ccc(-c2ccc(C(=O)NN)c(C)n2)cc1 :: 25

Q: Could you share which MIC value was measured for "Cc1nc(-c2ccc(F)cc2)ccc1C(=O)N/N=C1\C(=O)Nc2ccc(Br)cc21" ?
Result: 6.25

Q: For the molecule shown here, "COc1ccc(-c2ccc(C(=O)NN)c(C)n2)cc1OC" , give the reported MIC.
Result: 50

Q: So what does the record say about MIC for "Cc1nc(-c2ccc(F)cc2)ccc1C(=O)N/N=C1\C(=O)Nc2ccc(Cl)cc21" ?
Result: 12.5

Q: Look up MIC: "Cc1nc(-c2ccc(Br)cc2)ccc1C(=O)NN"
Result: 100

Q: Fill in: MIC of "COc1ccc(-c2ccc(C(=O)NN)c(C)n2)cc1" is ___
Result: 25

Q: Using the record for "Cc1nc(-c2ccc(Br)cc2)ccc1C(=O)NN=Cc1ccc(Cl)cc1Cl" , report its MIC.
Result: 100

Q: Requested field: MIC. Item: "Cc1nc(-c2ccc(F)cc2)ccc1C(=O)N/N=C1\C(=O)Nc2ccccc21"
Result: 25

Q: Quick one: MIC of NC(=O)c1cnccn1 [Pyrazinamid, pyrazinamide, reference compound] ?
Result: 3.21

Q: Reported MIC, molecule NNC(=O)c1ccncc1 [Isoniazide, Isoniazid, reference compound] : ____
Result: 0.75

Q: # query: MIC of entry "Cc1nc(-c2ccccc2)ccc1C(=O)NN"
Result: 25

Q: Request the reported MIC associated with "Cc1nc(-c2ccc(Cl)cc2)ccc1C(=O)NN"
Result: 50

Q: // returns reported MIC for input "Cc1nc(-c2ccc(Br)cc2)ccc1C(=O)NN=Cc1ccc2ccccc2c1"
Result: 100
